test: Single dose pharmacokinetics, COLO357 tumor bearing mouse, IV; assay type: in vivo; settings: MMAE; MMAE 0.06 mg/kg IV; liver
Where a SMILES comes first, the peptide text is derived from it. [ ]: non-standard residue; d: D form. The star is where a group is joined. Dolaproine = CO[C@@H]([C@@H]1CCCN1)[C@@H](C)C(=O)O; Dil = CC[C@H](C)[C@H](NC)[C@@H](CC(=O)O)OC; X1 = C[C@@H](N*)[C@@H](O)c1ccccc1; NMeV = CN[C@H](C(=O)O)C(C)C
READOUT NAME: Cmax (nM)
Give bare numbers, in nM.

Please report Cmax for the following compound: CC[C@H](C)[C@@H]([C@@H](CC(=O)N1CCC[C@H]1[C@H](OC)[C@@H](C)C(=O)N[C@H](C)[C@@H](O)c1ccccc1)OC)N(C)C(=O)[C@@H](NC(=O)[C@@H](NC)C(C)C)C(C)C [Free MMAE, monomethyl auristatin E, reference compound] (H-[NMeV]V[Dil][Dolaproine]-X1)
1.5

# credit: patent US20250041437A1
